Where do these numbers come from? They come from patent US20220098305A1.

Relative Binding (%) values, listed per item
# TGT: T1, human ICOS (human, UniProt Q9Y6W8 21-199)
# T1 construct: The cell that carries it is named under assay; also called huICOS; CD278
# T1 sequence: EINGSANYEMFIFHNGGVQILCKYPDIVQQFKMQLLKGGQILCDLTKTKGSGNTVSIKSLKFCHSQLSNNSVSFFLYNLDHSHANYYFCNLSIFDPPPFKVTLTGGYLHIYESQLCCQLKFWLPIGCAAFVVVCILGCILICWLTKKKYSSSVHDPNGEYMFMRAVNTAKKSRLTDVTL
# PROTOCOL DETAILS: flow cytometry, MFI(ICOSL+anti-ICOS)/MFI(anti-ICOS only)*100 at 120 nM; competitor ICOSL
Give your result in % as a bare value.

Answered examples (3):
>  <BINDER>
Molecule 14 (muIgG of 009) (antibody, V domains shown, Mouse IgG purified from hybridoma; also called ICOS (009); clone 009) VH: EVRLDETGGGVVQPGRPMELSCVASGFTFSDYWMNWVRQSPEKGLEWVAQIRNKPYNYETYYSDSVKGRFTISRDDSKSRVYLQMNNLRAEDMGIYYCTWPRLRSSDWHFDVWGAGTTVTVSS VL: AIQMTQSPSSLSASLGGEVTITCKASQDINKNIAWYQHKPGRGPRLLIWYTSTLQTGIPSRFSGSGSGRDYSFTISNLEPEDFATYYCLQFDNLYTFGSGTKLEIR

>  <ENDPOINT RESULT>
97.3

$$$$
>  <BINDER>
Molecule 20 (rbIgG of 1143) (antibody, V domains shown, Rabbit IgG format; also called ICOS (1143); clone 1143) VH: QSLEESGGDLVKPGASLTLTCKASGFDFSSAYDMCWVRQAPGKGLEWIGCVYYGDGITYYATWAKGRFTISKTSSTTVPLQMTSLTAADTATYFCARGAFLGSSYYLSLWGQGTLVTVSS VL: AIDMTQTPASVEAAVGGTVTINCQASENIYNWLAWYQQKPGQPPKLLIYDASKLASGVPSRFSASGSGTQFTLTISAVECADAATYYCQQAYTYGNIDNAFGGGTEVVVSG

>  <ENDPOINT RESULT>
100

$$$$
>  <BINDER>
Molecule 8 (rbIgG of 1167) (antibody, V domains shown, Rabbit IgG format, from transgenic rabbit; also called ICOS (1167); clone 1167) VH: EVRLLESGGGLVQPGGSLRLSCAASGFTFNTYAVHWVRQAPGKGLEWVSGIGGSGVRTYYADSVKGRLTISRDNSKNTLYLQMNSLRAEDTAIYFCAKDIYVADFTGYAFDIWGQGTMVTVSS VL: DIQMTQSPSSVSASVGDRVTITCRASQGINNFLAWYQQKPGKAPKLLIYDASSLQSGVPSRFAGSGSGTDFTLTISSLQPEDFATYYCQQYNFYPLTFGGGTMVEIKR

>  <ENDPOINT RESULT>
98.2

$$$$

Reported Relative Binding (%) for Molecule 18 (rbIgG of 1138) (antibody, V domains shown, Rabbit IgG format; also called ICOS (1138); clone 1138) VH: QSLEESGGDLVKPGASLTLTCTASGFDLSSYYYMCWVRQAPGKGLEWIACIYADIYGGTTHYASWAKGRFTISKTSSTTVTLQMTSLTAADTATYFCAREDGSRYGGSGYYNLWGPGTLVTVSS VL: ALVMTQTPSSVSAAVGGTVTINCQASQNIYSNLAWYQQKPGQPPKLLIYAASYLTSGVSSRFKGSGAGTQFTLTISGVECADAATYYCQQGHTTDNIDNAFGGGTEVVVKG was 98.2
